B1: RNA-binding E3 ubiquitin-protein ligase MEX3C, residues 325 to 391; numbered along this chain, Q5U5Q3 (parent)
chain: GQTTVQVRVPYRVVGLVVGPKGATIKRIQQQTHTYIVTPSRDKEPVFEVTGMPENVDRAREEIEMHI

- Variants of: B1
- ASSAY PROCEDURE: abundance fitness (aPCA) (normalised: wild type 0, dead -1); higher = more abundant; growth selection in yeast, the domain comes from the species named
- SETUP CONDITIONS: Homo sapiens
List of abundance fitness values.

Below are worked cases with known answers.
1. GQTTVQVRVPYRVVGLVVGPKGATIKRLQQQTHTYIVTPSRDKEPVFEVTGMPENVDRAREEIEMHI | -0.559
2. GQTTVQVRVPYRVVGLVVGPKGATIKRIQQQTHTPIVTPSRDKEPVFEVTGMPENVDRAREEIEMHI | -0.773
3. GQTTVQVRVPYRVVGLVVGPKGATIKRIQQQTHTYIVTPVRDKEPVFEVTGMPENVDRAREEIEMHI | -0.229

Exercise: Entry GQTTVQVRVPYRVVGLVVGPKGATIKRIQQQTHCYIVTPSRDKEPVFEVTGMPENVDRAREEIEMHI has what abundance fitness?
Key: -0.423

Exercise: What about this variant? GQTTVQVRVPYRVVGLVVGPKGATIKRIQQQTHTYIVTPSRDKEPVFEGTGMPENVDRAREEIEMHI
Key: -0.469

Exercise: What about this variant? GQTTVQVRVPYRVVGLVVGPKGATIKRIQQQTHTYIVTPSRDKEPAFEVTGMPENVDRAREEIEMHI
Key: -0.676

Exercise: What about this variant? GQTTVQVRVPYRVVGLVVGPKGATIKRWQQQTHTYIVTPSRDKEPVFEVTGMPENVDRAREEIEMHI
Key: -1.2

Exercise: What about this variant? GQTTVQVRVPYRVVGLVVGPKGATIKRIQQQTHTYIFTPSRDKEPVFEVTGMPENVDRAREEIEMHI
Key: -1

Exercise: What about this variant? GQTTVQVRVPYRVVGLVVGPKGATIKRIQQQTHFYIVTPSRDKEPVFEVTGMPENVDRAREEIEMHI
Key: -0.969

Exercise: What about this variant? GQTTVQVRVPYRVVGLVVGPKGATIKRIQQQEHTYIVTPSRDKEPVFEVTGMPENVDRAREEIEMHI
Key: -0.707

Exercise: What about this variant? GQTTVQVRVPYRVVGLVVGPKGATIFRIQQQTHTYIVTPSRDKEPVFEVTGMPENVDRAREEIEMHI
Key: -0.786

Exercise: What about this variant? GQTTVQVRVPYRVVGLVVGPKGATIKRIQQQTHTYIVTPSRDKEPVSEVTGMPENVDRAREEIEMHI
Key: -0.835

Exercise: What about this variant? GQTTVQVRVPYRVVGLVVVPKGATIKRIQQQTHTYIVTPSRDKEPVFEVTGMPENVDRAREEIEMHI
Key: -0.795

Exercise: What about this variant? GQTTVQVRVPYRVVGLVVGPKGATIKRIQQQTHQYIVTPSRDKEPVFEVTGMPENVDRAREEIEMHI
Key: -1.01

Exercise: What about this variant? GQTTVQVRVPYRVVGLVVGPKGATIKRIQQQTHTYIVTPSRDKEPVFEVTGMPENDDRAREEIEMHI
Key: -0.75
